B1: CPEB3 Ribozyme (parent)
chain: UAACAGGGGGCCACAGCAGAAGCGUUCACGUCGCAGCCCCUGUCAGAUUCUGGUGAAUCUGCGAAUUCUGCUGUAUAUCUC

Variants of: B1
test protocol: self-cleavage, relative activity (ratio to wild type); higher = more cleavage; in vitro, sequencing
Outcome: true (1) for self-cleavage of at least 0.4; false (0) for anything lower.

Some solved entries appear below for comparison.
mutant name: G8U U60A
classification: false (0)

mutant name: C38U U41A
classification: true (1)

Q. # check: self-cleavage of A15G G16A is greater than or equal to 0.4
A. false (0)

Q. # check: self-cleavage of A5G U60G is greater than or equal to 0.4
A. false (0)

Q. # check: self-cleavage of A20U G46A is greater than or equal to 0.4
A. false (0)

Q. # check: self-cleavage of C50U U51A is greater than or equal to 0.4
A. true (1)

Q. # check: self-cleavage of A21U U54G is greater than or equal to 0.4
A. false (0)

Q. # check: self-cleavage of A64U A65U is greater than or equal to 0.4
A. false (0)
